Data provenance: patent US10232013B2

test: MTS cell viability assay, M10; format: cell-based; details: human, M10 normal human mammary epithelial cells; M10, TP4 15.0 μg/mL, 24 h, mean±SD; read-out: Cellular toxicity (cell viability), MTS assay
Where no end group is shown, it is not given here.
measurement.name: viability at 24 h, 15 μg/mL

{"sequence.text": "FIHHIIGGLFSAGKAIHRLIRRRRR [TP4, tilapia piscidin 4]", "measurement.name": "viability at 24 h, 15 μg/mL", "result": "58.4%"}

---

assay: MTS cell viability assay, HDF; format: cell-based; conditions: human, HDF dermal fibroblasts, TP4 2.5 μg/mL, 12 h, mean±SD, read-out: Cellular toxicity (cell viability), MTS assay
Where no end group is shown, it is not given here.

{"sequence.text": "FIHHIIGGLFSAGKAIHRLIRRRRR [TP4, tilapia piscidin 4]", "unit.tag": "%", "viability at 12 h, 2.5 μg/mL": 100}

---

experiment: MTS cell viability assay, M10; format: cell-based; conditions: human, M10 normal human mammary epithelial cells; M10, TP4 20.0 μg/mL, 12 h, mean±SD; read-out: Cellular toxicity (cell viability), MTS assay
Where no end group is shown, it is not given here.
measurement.name: viability at 12 h, 20 μg/mL

{"sequence.text": "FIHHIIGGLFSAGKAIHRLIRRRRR [TP4, tilapia piscidin 4]", "result": "47.2%"}

---

Experiment: MTS cell viability assay, M10
Type: cell-based
Details: human, M10 normal human mammary epithelial cells; M10, TP4 20.0 μg/mL, 24 h, mean±SD; read-out: Cellular toxicity (cell viability), MTS assay
Method: Cell-lines used in this study were purchased from the Bioresource Collection and Research Center (BCRC) in and the cells were cultured by the standard cell culture procedures and conditions provided by the BCRC. […] For the transfection assays, cells were transfected with 0.1-0.4 μg FOSB/FOSAB expression plasmid (Origene Technology Inc.) and cell viability was determined after 72 h. […]
Where no end group is shown, it is not given here.
measurement.name: viability at 24 h, 20 μg/mL (%)

{"sequence.text": "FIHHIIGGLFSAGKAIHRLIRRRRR [TP4, tilapia piscidin 4]", "unit.tag": "%", "measured.number": 44}

---

assay: MTS cell viability assay, M10; format: cell-based; conditions: human, M10 normal human mammary epithelial cells; M10, TP4 10.0 μg/mL, 12 h, mean±SD; read-out: Cellular toxicity (cell viability), MTS assay
Where no end group is shown, it is not given here.

{"sequence.text": "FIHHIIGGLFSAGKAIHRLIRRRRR [TP4, tilapia piscidin 4]", "viability at 12 h, 10 μg/mL [%]": 83.8}

---

assay: MTS cell viability assay, M10; type: cell-based; settings: human, M10 normal human mammary epithelial cells; M10, TP4 5.0 μg/mL, 24 h, mean±SD; read-out: Cellular toxicity (cell viability), MTS assay
Where no end group is shown, it is not given here.
measurement.name: viability at 24 h, 5 μg/mL (%)

{"sequence.text": "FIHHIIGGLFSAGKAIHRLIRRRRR [TP4, tilapia piscidin 4]", "measurement.name": "viability at 24 h, 5 μg/mL", "measured.number": 91.2}

---

assay: MTS cell viability assay, M10; type: cell-based; details: human, M10 normal human mammary epithelial cells; M10, TP4 5.0 μg/mL, 6 h, mean±SD; read-out: Cellular toxicity (cell viability), MTS assay
Where no end group is shown, it is not given here.

{"sequence.text": "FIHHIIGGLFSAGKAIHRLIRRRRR [TP4, tilapia piscidin 4]", "unit.tag": "%", "viability at 6 h, 5 μg/mL": 92}

---

assay: MTS cell viability assay, HDF; type: cell-based; conditions: human, HDF dermal fibroblasts, TP4 20.0 μg/mL, 12 h, mean±SD, read-out: Cellular toxicity (cell viability), MTS assay
Where no end group is shown, it is not given here.
measurement.name: viability at 12 h, 20 μg/mL (%)

{"sequence.text": "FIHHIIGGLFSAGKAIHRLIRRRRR [TP4, tilapia piscidin 4]", "measurement.name": "viability at 12 h, 20 μg/mL", "measured.number": 80.5}

---

assay: MTS cell viability assay, M10; type: cell-based; settings: human, M10 normal human mammary epithelial cells; M10, TP4 2.5 μg/mL, 24 h, mean±SD; read-out: Cellular toxicity (cell viability), MTS assay
Where no end group is shown, it is not given here.

{"sequence.text": "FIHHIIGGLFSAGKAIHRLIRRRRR [TP4, tilapia piscidin 4]", "viability at 24 h, 2.5 μg/mL [%]": 94}

---

experiment: MTS cell viability assay, M10; type: cell-based; details: human, M10 normal human mammary epithelial cells; M10, TP4 10.0 μg/mL, 6 h, mean±SD; read-out: Cellular toxicity (cell viability), MTS assay
Where no end group is shown, it is not given here.

{"sequence.text": "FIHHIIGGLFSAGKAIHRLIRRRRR [TP4, tilapia piscidin 4]", "viability at 6 h, 10 μg/mL [%]": 84}

---

Assay: MTS cell viability assay, M10
Format: cell-based
Conditions: human, M10 normal human mammary epithelial cells; M10, TP4 2.5 μg/mL, 12 h, mean±SD; read-out: Cellular toxicity (cell viability), MTS assay
Description: Cell-lines used in this study were purchased from the Bioresource Collection and Research Center (BCRC) in and the cells were cultured by the standard cell culture procedures and conditions provided by the BCRC. […] For the transfection assays, cells were transfected with 0.1-0.4 μg FOSB/FOSAB expression plasmid (Origene Technology Inc.) and cell viability was determined after 72 h. […]
Where no end group is shown, it is not given here.

{"sequence.text": "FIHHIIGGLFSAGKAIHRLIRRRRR [TP4, tilapia piscidin 4]", "viability at 12 h, 2.5 μg/mL / %": 96}

---

assay: MTS cell viability assay, HDF; type: cell-based; settings: human, HDF dermal fibroblasts, TP4 5.0 μg/mL, 12 h, mean±SD, read-out: Cellular toxicity (cell viability), MTS assay
Where no end group is shown, it is not given here.

{"sequence.text": "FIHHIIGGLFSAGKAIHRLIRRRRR [TP4, tilapia piscidin 4]", "viability at 12 h, 5 μg/mL [%]": 93.8}

---

assay: MTS cell viability assay, HDF; format: cell-based; settings: human, HDF dermal fibroblasts, TP4 15.0 μg/mL, 6 h, mean±SD, read-out: Cellular toxicity (cell viability), MTS assay
Where no end group is shown, it is not given here.
measurement.name: viability at 6 h, 15 μg/mL (%)

{"sequence.text": "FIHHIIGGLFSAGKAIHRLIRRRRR [TP4, tilapia piscidin 4]", "measurement.name": "viability at 6 h, 15 μg/mL", "unit.tag": "%", "measured.number": 90.8}
